property: glass transition temperature (°C)

Worked examples follow.
compound	glass transition temperature [°C]
*c1ccc(OC(=O)c2ccc([Si](C)(C)c3ccc(C(=O)Oc4ccc(C5(*)OC(=O)c6ccccc65)cc4)cc3)cc2)cc1 (repeat unit)	214.00
*Nc1cccc(NC(=O)Cc2cc(CC(*)=O)c(C)cc2C)c1 (repeat unit)	222.00
*CC(*)(Cl)Cl (repeat unit) [Poly(vinylidene chloride)]	-9.83

[a] *CC(*)(C)C(=O)OCCCCC1CCCCC1 (repeat unit)
[b] *Oc1ccc(C(=O)c2cccc(C(=O)c3ccc(Oc4ccc(Cc5ccc(*)cc5)cc4)cc3)c2)cc1 (repeat unit)
Query :: Which has the higher glass transition temperature, a or b ? Select an item and report its label.
Result :: b
(b: 145.00 °C, a: 43.00 °C)

[A] *c1ccc(C2(c3ccc(N4C(=O)c5ccc(S(=O)(=O)c6ccc7c(c6)C(=O)N(*)C7=O)cc5C4=O)cc3)c3ccccc3-c3ccccc32)cc1 (repeat unit)
[B] *C(=O)c1ccc2c(c1)C(=O)N(c1ccc(Oc3ccc(C(=O)c4ccc(C(=O)c5ccc(Oc6ccc(N7C(=O)c8ccc(*)cc8C7=O)cc6)cc5)cc4)cc3)cc1)C2=O (repeat unit)
Query :: Lower glass transition temperature: A or B ? # answer = label of selected item
Result :: B
(B: 233.00 °C, A: 392.00 °C)

----------
property: glass transition temperature (°C)

molecule	glass transition temperature (°C)
*Oc1ccc(CC(NC(=O)CCc2ccc(OC(=O)CCCC(*)=O)cc2)C(=O)OC(C)CC)cc1 (repeat unit)	52.00
*C1CCC(CC2CCC(N3C(=O)c4ccc(-c5ccc6c(c5)C(=O)N(*)C6=O)cc4C3=O)CC2)CC1 (repeat unit)	242.00
*Oc1ccc(/N=C/CCC/C=N/c2ccc(OC(=O)Nc3cc(NC(*)=O)ccc3C)cc2)cc1 (repeat unit)	69.00
*CCC[Si](*)(C)c1cccc(C)c1 (repeat unit)	-25.00

[P] *c1cc(Br)c(-c2c(Br)cc(N3C(=O)c4ccc(-c5ccc6c(c5)C(=O)N(*)C6=O)cc4C3=O)cc2C(=O)OCCCCCCCCCCCCCCCCCC)c(C(=O)OCCCCCCCCCCCCCCCCCC)c1 (repeat unit)
[Q] *Oc1ccc(Oc2ccc(S(=O)(=O)c3ccc(Oc4ccc(C(=O)c5ccc(*)cc5)cc4)cc3)cc2)cc1 (repeat unit)
[R] *CCCc1ccc(-c2c(-c3ccccc3)cc(-c3ccc(-c4cc(-c5ccccc5)c(-c5ccc(*)cc5)c(-c5ccccc5)c4-c4ccccc4)cc3)c(-c3ccccc3)c2-c2ccccc2)cc1 (repeat unit)
Query :: Number of molecules to sort: 3. Sort criterion: glass transition temperature, ascending. As an answer, provide the labels arranged in the order called for.
Result :: P, Q, R
(P: 83.50 °C, Q: 186.00 °C, R: 290.00 °C)

----------
property: glass transition temperature (°C)

Record excerpt, results attached:
molecule	units	glass transition temperature
*CC(*)(CC)C(=O)OCC (repeat unit)	°C	27.00
*CC(O)COc1c(C)cc(C(C)(C)c2cc(C)c(OCC(O)COc3c(C)cc(S(=O)(=O)c4cc(C)c(O*)c(C)c4)cc3C)c(C)c2)cc1C (repeat unit)	°C	145.00

[A] *c1ccc(NC(=O)c2cc(NC(=O)c3ccc(OC(C)=O)cc3)cc(C(=O)Nc3ccc(-c4nnc(*)o4)cc3)c2)cc1 (repeat unit)
[B] *Oc1ccc(C2(c3ccc(OC(=O)CCCCCCC(*)=O)cc3)c3ccccc3-c3ccccc32)cc1 (repeat unit)
Query :: In the pair A and B , the larger recorded glass transition temperature belongs to which? Refer to your chosen entry by its label in the reply.
Result :: A
